Target: T1, B7H3 on cells (B7H3 on HEK293 cells; B7H3 expressed from plasmid on HEK-293T and QT6 cells) (human, UniProt Q5ZPR3 29-534)
T1 construct: whole, on cells; also called HEK293 B7H3 proteins; human B7H3
T1 sequence (looked up): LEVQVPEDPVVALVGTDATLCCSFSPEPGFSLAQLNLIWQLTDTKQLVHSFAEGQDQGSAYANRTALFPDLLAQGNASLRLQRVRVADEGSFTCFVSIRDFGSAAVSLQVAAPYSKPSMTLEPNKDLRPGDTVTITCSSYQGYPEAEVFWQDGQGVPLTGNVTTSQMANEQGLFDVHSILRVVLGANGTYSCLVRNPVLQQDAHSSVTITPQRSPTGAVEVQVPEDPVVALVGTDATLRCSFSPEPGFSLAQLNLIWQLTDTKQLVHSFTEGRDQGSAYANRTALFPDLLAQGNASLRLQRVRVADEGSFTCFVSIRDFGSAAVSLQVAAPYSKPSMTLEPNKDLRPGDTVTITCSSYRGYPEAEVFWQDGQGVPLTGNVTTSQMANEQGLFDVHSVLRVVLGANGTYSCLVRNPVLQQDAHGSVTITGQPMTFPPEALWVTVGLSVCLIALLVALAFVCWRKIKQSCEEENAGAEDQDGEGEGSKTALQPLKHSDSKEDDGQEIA
Assay: flow cytometry on HEK293 cells
observation_type: EC50 (mg/L)
Express your answer in mg/L, writing the number without its unit.

* chimeric antibody ch2B8 (antibody, V domains shown) VH: QVQLQQSGPELVRPGVSVKISCKVSGYTFTDGAMHWVKRSHAKSLEWIGIINTNSGNTNYNQKFQGKATMTVDKSSSTAYMELARLTSEDSAIYYCARGVFYYGYGAWFAYWGQGTLVTVSA VL: DVQITQSPSYLTASPGETIIINCRASKTISNYLAWYQEKPGKTNKLLIYSGSTLQSGIPSRFSGSGSDTDFTLTISSLEPEDFAMYYCQQHHEYPLTFGAGTKLELKR | 0.132

Data request: // lookup EC50 for humanized 6F7 with light chain variable region LV2 (antibody, V domains shown, also called hz6F7L2; h6F7H1L2) VH: EVQLVESGGGLVQPGGSLRLSCAASGFTFTDYYMSWVRQAPGKGLEWVAFIRNKANGYTTEYSASVKGRFTISRDDSKNSLYLQMNSLRAEDTAVYYCARDSHYRPFAYWGQGTLVTVSS VL: DIVMTQSPDSLAVSLGERATINCKSSQSLLNSGNQNNYLTWYQQKPGQPPKLLIYLASTRDSGVPDRFSGSGSGTDFTLTISSLQAEDVAVYYCQNDYTYPLTFGGGTKVEIKR
Data returned: 0.41

Cited source: patent US20250011430A1
